From: patent US9138494B2

Assay: log D determined by shake flask method
Assay type: physicochemical
Settings: read-out: SF log D
metric name: logD
The answer should be a number; do not append a unit.

INSERT INTO assay_data (molecule, numeric_readout) VALUES
  ('Cn1cc(-c2ccncc2)c(-c2ccc(OCc3ccc4ccccc4n3)cc2)n1 [MP-10, reference compound]', 4.28);

Briefly, logD measured for FCCn1cc(-c2ccncc2)c(-c2ccc(OCc3ccc4ncccc4n3)cc2)n1 : 3.71

----------
Biological target: PDE10A (Homo sapiens, UniProt Q9Y233)
Sequence (Q9Y233 whole entry, looked up): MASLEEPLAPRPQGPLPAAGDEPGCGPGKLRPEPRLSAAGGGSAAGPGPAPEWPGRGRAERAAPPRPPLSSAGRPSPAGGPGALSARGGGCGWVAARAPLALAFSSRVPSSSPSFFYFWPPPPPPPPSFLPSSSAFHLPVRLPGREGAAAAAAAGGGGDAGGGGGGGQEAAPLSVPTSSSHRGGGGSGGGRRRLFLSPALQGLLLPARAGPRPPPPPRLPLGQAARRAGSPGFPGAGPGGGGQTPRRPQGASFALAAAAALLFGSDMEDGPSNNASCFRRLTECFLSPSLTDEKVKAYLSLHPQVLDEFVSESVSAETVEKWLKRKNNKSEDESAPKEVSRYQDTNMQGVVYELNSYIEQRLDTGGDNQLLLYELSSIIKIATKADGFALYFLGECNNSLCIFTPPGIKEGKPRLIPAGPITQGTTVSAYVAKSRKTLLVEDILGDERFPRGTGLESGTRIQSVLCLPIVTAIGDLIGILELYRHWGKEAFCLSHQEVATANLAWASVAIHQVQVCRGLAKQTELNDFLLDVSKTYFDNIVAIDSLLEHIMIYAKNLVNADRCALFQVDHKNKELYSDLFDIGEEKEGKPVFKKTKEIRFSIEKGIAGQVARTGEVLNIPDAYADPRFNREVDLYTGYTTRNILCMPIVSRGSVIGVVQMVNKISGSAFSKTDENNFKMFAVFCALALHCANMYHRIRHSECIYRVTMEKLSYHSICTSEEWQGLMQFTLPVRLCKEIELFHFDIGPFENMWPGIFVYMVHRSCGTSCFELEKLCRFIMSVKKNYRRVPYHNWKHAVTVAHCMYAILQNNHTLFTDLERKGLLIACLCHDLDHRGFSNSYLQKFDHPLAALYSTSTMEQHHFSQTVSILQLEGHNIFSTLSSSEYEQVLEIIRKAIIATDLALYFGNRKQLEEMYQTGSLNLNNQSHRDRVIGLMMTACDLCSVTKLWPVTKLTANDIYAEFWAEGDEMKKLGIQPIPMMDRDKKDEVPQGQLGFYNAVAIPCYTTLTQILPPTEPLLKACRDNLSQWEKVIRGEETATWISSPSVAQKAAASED
Test: PDE enzymatic inhibition assay (HTRF cAMP kit)
Assay type: biochemical
Conditions: recombinant PDE10, 20 nM substrate, 60 minutes at 29° C.
IC50 listing for selected compounds.
Response body: numeric value in nM, unit text excluded.

INSERT INTO results (compound, numeric_readout) VALUES
  ('FCCn1cc(-c2ccncc2)c(-c2ccc(OCc3ccc4ncccc4n3)cc2)n1 [Example 2]', 0.2);

Briefly, IC50 measured for Cn1cc(-c2ccncc2)c(-c2ccc(OCc3nc4ccccc4c(=O)n3C)cc2)n1 [Example 4] : 2

Briefly, IC50 measured for Cc1cnc(COc2ccc(-c3nn(CCF)cc3-c3ccncc3)cc2)c(C)c1 [Janssen B-3, reference compound] : 0.98

Briefly, IC50 measured for Cn1cc(-c2ccncc2)c(-c2ccc(OCc3ccc4ncccc4n3)cc2)n1 [Example 1] : 1.05

Briefly, IC50 measured for FCCn1cc(-c2ccncc2)c(-c2ccc(OCc3ncc4ccccc4n3)cc2)n1 [Example 9] : 0.18

Briefly, IC50 measured for FCCn1cc(-c2ccncc2)c(-c2ccc(OCc3nc4ccccc4o3)cc2)n1 [Example 3] : 4.7

Briefly, IC50 measured for FCCn1cc(-c2ccncc2)c(-c2ccc(OCc3ccc4ccccc4n3)cc2)n1 [JNJ-41510417, reference compound] : 0.63
